# viability, T/C listing for each entry below
Tested on: COR L88 complex tumor spheroid viability
Experiment: Anticancer human tumor COR L88 cell line growth inhibition;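 also: compound exposure lasted 7 days before viability readout; percent of DMSO vehicle-treated spheroids = 100%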
Details: second compound 31.6 µM; first compound 0.0949 µM; active compounds read low

compound: Cc1sc2c(c1C)C(c1ccc(Cl)cc1)=NC(CC(=O)Nc1ccc(O)cc1)c1nnc(C)n1-2 (centres undefined) + Cn1nnc2c(C(N)=O)ncn2c1=O
viability, T/C / %: 104
//
compound: O=C(c1cc(Cc2n[nH]c(=O)c3ccccc23)ccc1F)N1CCN(C(=O)C2CC2)CC1 + Cn1nnc2c(C(N)=O)ncn2c1=O
viability, T/C / %: 61.8
//
compound: Cn1ncnc1[C@H]1c2n[nH]c(=O)c3cc(F)cc(c23)N[C@@H]1c1ccc(F)cc1 + Cn1nnc2c(C(N)=O)ncn2c1=O
viability, T/C / %: 44.2
//
compound: CNCc1ccc(-c2cc(-c3nc(-c4ccc(S(=O)(=O)C(C)C)cc4)cnc3N)on2)cc1 + Cn1nnc2c(C(N)=O)ncn2c1=O
viability, T/C / %: 101
